# experimental target: Short transient receptor potential channel 5 (Homo sapiens)
# Sequence (Q9UL62 whole entry): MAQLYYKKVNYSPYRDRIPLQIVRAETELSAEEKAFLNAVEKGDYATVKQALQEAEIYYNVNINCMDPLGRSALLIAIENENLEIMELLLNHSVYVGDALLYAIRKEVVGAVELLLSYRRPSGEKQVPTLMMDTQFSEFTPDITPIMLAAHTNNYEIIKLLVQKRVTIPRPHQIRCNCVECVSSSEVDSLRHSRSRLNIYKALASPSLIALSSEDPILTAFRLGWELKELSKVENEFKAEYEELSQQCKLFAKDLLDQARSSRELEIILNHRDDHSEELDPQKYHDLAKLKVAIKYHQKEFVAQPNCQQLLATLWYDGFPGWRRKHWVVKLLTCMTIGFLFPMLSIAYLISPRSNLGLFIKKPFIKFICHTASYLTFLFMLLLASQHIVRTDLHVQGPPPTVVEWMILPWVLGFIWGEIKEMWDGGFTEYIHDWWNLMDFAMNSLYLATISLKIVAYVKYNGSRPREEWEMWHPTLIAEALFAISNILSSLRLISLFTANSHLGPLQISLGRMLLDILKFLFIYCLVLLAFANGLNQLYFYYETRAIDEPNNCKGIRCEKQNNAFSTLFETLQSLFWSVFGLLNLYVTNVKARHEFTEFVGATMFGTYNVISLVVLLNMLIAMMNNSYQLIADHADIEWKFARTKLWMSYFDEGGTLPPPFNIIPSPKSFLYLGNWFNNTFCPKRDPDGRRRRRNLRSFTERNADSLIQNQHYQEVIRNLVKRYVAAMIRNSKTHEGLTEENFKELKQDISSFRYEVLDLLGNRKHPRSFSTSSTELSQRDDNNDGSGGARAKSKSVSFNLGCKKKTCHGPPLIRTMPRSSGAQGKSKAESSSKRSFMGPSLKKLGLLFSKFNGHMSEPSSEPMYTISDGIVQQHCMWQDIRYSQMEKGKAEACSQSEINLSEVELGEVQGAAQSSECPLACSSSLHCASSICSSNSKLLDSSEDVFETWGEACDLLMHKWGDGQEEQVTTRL
# method notes: Inhibition of TRPC5 (unknown origin) expressed in HEK293/TREx cells assessed as reduction in intracellular calcium level measured for 3 mins by fluo4 dye-based fluorescence assay
# Format: cell-based
IC50: recorded values

Worked examples, 4 compounds total:
1. Cn1c(=O)n(CCCO)c(=O)c2c1cc(-c1cccc(Cl)c1)n2Cc1ccc(Cl)cc1 :: 408 to 7540 nM
2. CC(C)CCc1c(-c2cccc(Cl)c2)ncc2c1c(=O)n(CCCO)c(=O)n2C :: 195 to 9800 nM
3. Cn1c(=O)n(CCCOC(=O)O)c(=O)c2c(Cc3ccc(Cl)cc3)c(-c3ccc(Cl)cc3)ncc21 :: 195 to 9800 nM
4. Cn1c(=O)n(CCCO)c(=O)c2c(Cc3ccc(Cl)cc3)c(Oc3cccc(Cl)c3)sc21 :: 21 to 1700 nM

Request: Suppose we examine the compound "Cc1c(-c2cccc(OC(F)(F)F)c2)sc2c1c(=O)n(CCCO)c(=O)n2C" ; what IC50 value has been reported?
Result: 21 to 1700 nM

----------
# experimental target: UniProtKB Q9UL62
# Sequence (Q9UL62 whole entry): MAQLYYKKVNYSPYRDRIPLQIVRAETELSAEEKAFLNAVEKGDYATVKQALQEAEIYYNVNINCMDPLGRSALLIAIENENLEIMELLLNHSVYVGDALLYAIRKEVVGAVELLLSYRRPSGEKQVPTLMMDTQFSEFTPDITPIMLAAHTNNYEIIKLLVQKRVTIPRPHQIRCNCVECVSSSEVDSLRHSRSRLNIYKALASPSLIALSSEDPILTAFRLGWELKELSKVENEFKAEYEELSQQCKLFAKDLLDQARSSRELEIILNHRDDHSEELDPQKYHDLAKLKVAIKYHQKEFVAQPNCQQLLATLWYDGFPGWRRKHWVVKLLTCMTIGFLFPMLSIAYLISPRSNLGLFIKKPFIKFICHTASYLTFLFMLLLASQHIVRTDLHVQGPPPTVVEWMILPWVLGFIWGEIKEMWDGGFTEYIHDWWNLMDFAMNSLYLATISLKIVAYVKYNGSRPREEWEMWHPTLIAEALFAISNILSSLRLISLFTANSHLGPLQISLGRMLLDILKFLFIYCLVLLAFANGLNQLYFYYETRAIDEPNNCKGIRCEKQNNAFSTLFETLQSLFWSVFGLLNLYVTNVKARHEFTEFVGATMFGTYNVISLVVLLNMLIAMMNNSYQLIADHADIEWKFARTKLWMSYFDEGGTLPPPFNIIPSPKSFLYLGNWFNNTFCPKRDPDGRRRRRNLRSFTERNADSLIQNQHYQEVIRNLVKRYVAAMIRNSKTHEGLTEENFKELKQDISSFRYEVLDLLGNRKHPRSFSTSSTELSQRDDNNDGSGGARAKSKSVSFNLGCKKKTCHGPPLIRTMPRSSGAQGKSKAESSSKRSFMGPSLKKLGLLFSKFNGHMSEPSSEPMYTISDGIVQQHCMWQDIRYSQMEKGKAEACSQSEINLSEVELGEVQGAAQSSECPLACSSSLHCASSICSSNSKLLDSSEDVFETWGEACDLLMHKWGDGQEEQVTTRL
# method notes: Inhibition of TRPC5 (unknown origin) expressed in HEK293/TREx cells assessed as reduction in intracellular calcium level measured for 3 mins by fluo4 dye-based fluorescence assay
# Assay type: cell-based
pIC50: −log10 of the molar value.
pIC50: recorded values

Worked examples, 3 molecules total:
1) CC(C)CC(O)c1c(-c2cccc(OC(F)(F)F)c2)sc2c1c(=O)n(CCCO)c(=O)n2C (stereo not given) :: 5.77 to 7.68
2) Cn1c(=O)n(CCCO)c(=O)c2c(Cc3ccc(Cl)cc3)c(-c3ccc(Cl)cc3)sc21 :: 5.77 to 7.68
3) Cn1c(=O)n(CCCO)c(=O)c2c(Cc3ccc(Cl)cc3)c(-c3cccc(Cl)c3)oc21 :: 5.77 to 7.68

Request: Suppose we examine the molecule "Cn1c(=O)n(CCCO)c(=O)c2c(Cc3ccc(Cl)cc3)c(-c3cccc(Cl)c3)sc21" ; what pIC50 value has been reported?
Result: 5.77 to 7.68

Request: Suppose we examine the molecule "Cn1c(=O)n(CCCCO)c(=O)c2c(Cc3ccccc3)c(Oc3cccc(OC(F)(F)F)c3)ccc21" ; what pIC50 value has been reported?
Result: 6.40 to 9.00

Request: Suppose we examine the molecule "Cc1c(-c2cccc(F)c2)sc2c1c(=O)n(CCCO)c(=O)n2C" ; what pIC50 value has been reported?
Result: 5.77 to 7.68

Request: Suppose we examine the molecule "Cc1c(-c2ccc(F)c(C(F)(F)F)c2)sc2c1c(=O)n(CCCO)c(=O)n2C" ; what pIC50 value has been reported?
Result: 5.77 to 7.68

Request: Suppose we examine the molecule "Cn1c(=O)n(CCCO)c(=O)c2c(Cc3ccc(Cl)cc3)c(Oc3cccc(Cl)c3)ncc21" ; what pIC50 value has been reported?
Result: 5.01 to 6.71

Request: Suppose we examine the molecule "Cn1c(-c2cccc(OC(F)(F)F)c2)cc2c1c(=O)n(CCCO)c(=O)n2C" ; what pIC50 value has been reported?
Result: 5.12 to 6.39

Request: Suppose we examine the molecule "Cc1c(-c2ccc(Cl)c(Cl)c2)sc2c1c(=O)n(CCCO)c(=O)n2C" ; what pIC50 value has been reported?
Result: 5.77 to 7.68

Request: Suppose we examine the molecule "Cc1c(-c2cccc(Cl)c2)sc2c1c(=O)n(CCCO)c(=O)n2C" ; what pIC50 value has been reported?
Result: 5.77 to 7.68

Request: Suppose we examine the molecule "Cn1c(=O)n(CCCO)c(=O)c2c1c(-c1cccc(Cl)c1)cn2Cc1ccc(Cl)cc1" ; what pIC50 value has been reported?
Result: 5.12 to 6.39

Request: Suppose we examine the molecule "Cn1c(=O)n(CCCO)c(=O)c2c(Cc3ccc(Cl)cc3)c(-c3cccc(OC(F)(F)F)c3)sc21" ; what pIC50 value has been reported?
Result: 5.77 to 7.68

Request: Suppose we examine the molecule "Cn1c(=O)n(CCCO)c(=O)c2c(Cc3ccccc3)c(Oc3cccc(OC(F)(F)F)c3)ccc21" ; what pIC50 value has been reported?
Result: 6.40 to 9.00

Request: Suppose we examine the molecule "CCCCOc1ccc2c(c1Cc1ccc(F)cc1)c(=O)n(CCCO)c(=O)n2C" ; what pIC50 value has been reported?
Result: 6.40 to 9.00

Request: Suppose we examine the molecule "COc1ccc2c(c1Cc1ccc(F)cc1)c(=O)n(CCCO)c(=O)n2C" ; what pIC50 value has been reported?
Result: 6.40 to 9.00

Request: Suppose we examine the molecule "Cc1c(-c2ccccc2Cl)sc2c1c(=O)n(CCCO)c(=O)n2C" ; what pIC50 value has been reported?
Result: 5.77 to 7.68

Request: Suppose we examine the molecule "Cn1c(=O)n(CCCO)c(=O)c2c1cc(-c1cccc(OC(F)(F)F)c1)n2Cc1ccc(Cl)cc1" ; what pIC50 value has been reported?
Result: 5.12 to 6.39

Request: Suppose we examine the molecule "CC(C)CCc1c(-c2ccc(Cl)cc2)ncc2c1c(=O)n(CCCO)c(=O)n2C" ; what pIC50 value has been reported?
Result: 5.01 to 6.71

Request: Suppose we examine the molecule "Cc1c(-c2cncc(Cl)c2)sc2c1c(=O)n(CCCO)c(=O)n2C" ; what pIC50 value has been reported?
Result: 5.77 to 7.68

Reference source for all entries: ChEMBL document CHEMBL4376804
